experiment: reduced growth of AddAB-expressing E. coli cells – absorbance, AddAB inhibitor project, primary screen (AID 435030);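 also: 0% = vehicle wells of infected cells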; details: E. coli expressing H. pylori AddAB, at 11.9 µM, hits give high values
Hit rate of the full screen: of about 330,000 compounds, about 940 (0.28%) were called active. This excerpt belongs to a sample that is enriched for actives.
This section presents compounds with their documented inhibition values.
Write it as a number; the unit % goes unstated.

CCc1ccc(OCC(=O)N2CCN(CC(=O)Nc3ccccc3Cl)CC2)cc1 : -0.08

For C[C@]12CC[C@H](O)CC1=C([N+](=O)[O-])CC1C2CC[C@@]2(C)C1CC[C@@H]2O (stereo not given in full) , what is its reported inhibition?
1.39

Value lookup for inhibition; key = CCc1nc2ccccc2c(=O)n1-c1cccc(OC)c1
1.96

Reported inhibition, compound CN(C)S(=O)(=O)c1cc(C(=O)N2CCC(C(=O)O)(c3ccccc3)CC2)ccc1Cl : ____
23.8

inhibition for Cc1ccc(-c2nn(CCC#N)cc2C(=O)O)cc1C ?
2.06
